assayedSystem: MMP-14 (Homo sapiens, UniProt P50281)
Construct: The catalytic domain enzyme was expressed in E. coli inclusion bodies, solubilized in urea; made in house
methodDescription: In vitro MMP inhibition, Ki determination (fluorogenic substrate II)
Assay type: biochemical
conditionInfo: value outside parentheses; read-out: MMP-14 Ki
metric: Ki (nM)

Answered examples (5):
> print(dat)
                          chemicalstructure  endpointvalue
1  O=C(NO)C1(S(=O)(=O)N2CCN(c3ncc(-c4ccc(O)cc4)s3)CC2)CCOCC1            180
2  CCCCc1cnc(N2CCN(S(=O)(=O)C3(C(=O)NO)CCN(CCOC)CC3)CC2)nc1           5770
3  Cc1ccccc1-c1cnc(N2CCN(S(=O)(=O)C3(C(=O)NO)CCOCC3)CC2)s1            650
4  CCCCOc1ccc(N2CCN(S(=O)(=O)C3(C(=O)NO)CCN(C(N)=O)CC3)CC2)cc1           1930
5  O=C(NO)C1(S(=O)(=O)N2CCN(c3ncc(-c4ccc(-c5ccccc5)cc4)s3)CC2)CCOCC1            216

[I] O=C(NO)C1(S(=O)(=O)N2CCC(c3ccc(-c4cccc(F)c4)cn3)CC2)CCOCC1
[II] O=C(NO)C1(S(=O)(=O)N2CCC(c3ccc(OCC(F)(F)C(F)F)cc3)CC2)CCN(C2CC2)CC1
Exercise: Between these two entries, I and II , state which has the higher Ki. Mark your answer with the label of the selected entry.
Key: II

[A] O=C(NO)C1(S(=O)(=O)N2CCC(c3ccc(CCC(F)(F)C(F)(F)F)cn3)CC2)CCOCC1
[B] O=C(NO)C1(S(=O)(=O)N2CCN(c3ncc(-c4cccnc4)s3)CC2)CCOCC1
[C] C#CCN1CCC(C(=O)NO)(S(=O)(=O)N2CCN(c3ccc(OCCCC)cc3)CC2)CC1
[D] O=C(NO)C1(S(=O)(=O)N2CCC(c3ccc(OCC(F)(F)C(F)F)cc3)CC2)CCN(CCN2CCOCC2)CC1
Exercise: Arrange by Ki, high to low. Response field: labels, in requested order.
Key: C, D, A, B
(C: 5000 nM, D: 2930 nM, A: 1300 nM, B: 778 nM)

[I] O=C(NO)C1(S(=O)(=O)N2CCC(c3ccc(-c4cccs4)cn3)CC2)CCOCC1
[II] O=C(NO)C1(S(=O)(=O)N2CCC(c3ccc(CCCC(F)(F)F)cc3)CC2)CCOCC1
[III] O=C(NO)C1(S(=O)(=O)N2CCC(c3ccc(CCCC(F)(F)F)cn3)CC2)CCOCC1
[IV] O=C(NO)C1(S(=O)(=O)N2CCN(c3ncc(-c4ccc(OC(F)(F)F)cc4)s3)CC2)CCOCC1
Exercise: # rank by Ki, ascending (min first) Ranked list of labels, please, in the requested order.
Key: IV, I, III, II

[P] CCCCCc1cccc(N2CCN(S(=O)(=O)C3(C(=O)NO)CCOCC3)CC2)c1
[Q] O=C(NO)C1(S(=O)(=O)N2CCC(c3ccc(OC(F)(F)C(F)F)cc3)CC2)CCOCC1
[R] N#Cc1cccc(-c2cnc(N3CCN(S(=O)(=O)C4(C(=O)NO)CCOCC4)CC3)s2)c1
Exercise: Ascending sort, Ki. Output spec: labels arranged per the requested ranking.
Key: R, Q, P
(R: 867 nM, Q: 1610 nM, P: 3420 nM)
